These entries and their values trace back to PubChem BioAssay AID652054.

# TARGET_OR_SYSTEM: D(3) dopamine receptor (Homo sapiens) (UniProt P35462)
# Sequence (P35462 whole entry, looked up): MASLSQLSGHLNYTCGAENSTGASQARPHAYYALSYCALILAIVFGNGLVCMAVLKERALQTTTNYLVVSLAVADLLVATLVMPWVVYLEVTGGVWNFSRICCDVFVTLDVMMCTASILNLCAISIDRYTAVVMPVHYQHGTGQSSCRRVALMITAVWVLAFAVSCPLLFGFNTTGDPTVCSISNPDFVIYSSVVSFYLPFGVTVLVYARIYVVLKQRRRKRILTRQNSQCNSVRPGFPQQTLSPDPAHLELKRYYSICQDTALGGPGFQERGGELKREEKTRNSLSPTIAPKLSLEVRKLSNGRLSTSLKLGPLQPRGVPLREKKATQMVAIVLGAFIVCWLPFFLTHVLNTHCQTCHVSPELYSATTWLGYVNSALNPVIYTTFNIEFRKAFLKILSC
# ASSAY_NOTES: qHTS of D3 Dopamine Receptor Antagonist: qHTS; further: on the % scale 0 is the no-effect control and ±100 the full control effect
# EXPERIMENTAL_PARAMETERS: D3R cells, DiscoveRx beta-arrestin luminescence, antagonist mode; stronger effect = lower value
Out of some 360,000 compounds screened, about 9,100 (2.5%) were called active. Inconclusive results (about 4%) are left out. The sample holds actives, similar compounds and a random draw of the others, so the mix is not that of the screen.
Parameter max response, negative = inhibition: see the listing below.
Quick note: give the figure in %, leave out the unit.

# MOLECULE, max response, negative = inhibition / %
data = [
    ("CN(C)CCOc1ccc(Cl)cc1C(C)(C)C", -51.2),
    ("CC1(C(=O)Nc2cccc3c2CCCC3)CCN1C(=O)C1(c2ccccc2)CC1 (stereo not given)", 11.6),
    ("CC1=C(C(=O)N(C)C)CC(CC(=O)NCCN2CCOCC2)C(=O)N1Cc1ccccc1 (stereo not given)", -7.58),
    ("CCCC/C=C/c1cccc2nncn12", 11.2),
    ("CCCCN(CC)CCNC(=O)c1[nH]c(C)c(C(C)=O)c1C", -58.3),
]

Ask: Note max response, negative = inhibition for the molecule shown: CCN(CC)CCN(C)C(c1ccnc2ccccc12)c1nnnn1-c1ccc2c(c1)OCCO2 (stereo not given)
Reply: 0

Ask: // fetch max response, negative = inhibition given entry COc1ccc(NC(=O)C2CCC(CNC(=O)[C@@H]3Cc4ccccc4CN3)CC2)cc1 (stereo not given in full)
Reply: -8.86

Ask: Give reported max response, negative = inhibition value for "CC(=O)c1c(C)[nH]c(C(=O)NCc2ccc(C)cc2)c1C"
Reply: -6.75

Ask: Please report max response, negative = inhibition for the following molecule: "Cc1ccc(-c2nnc(CN3CCN(C)CC3)o2)cc1"
Reply: 0
